B1: Intersectin-1, residues 1156 to 1213; numbered along this chain, Q15811 (parent)
chain: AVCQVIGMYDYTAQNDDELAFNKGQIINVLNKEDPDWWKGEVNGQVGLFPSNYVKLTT

Variants of: B1
EXPERIMENT NOTES: abundance fitness (aPCA) (normalised: wild type 0, dead -1); higher = more abundant; growth selection in yeast, the domain comes from the species named
CONDITION CONTEXT: Homo sapiens
Assign class by abundance fitness: not lower than -0.5 means t; lower than -0.5 means f.

These recorded examples may help you get a feel for the data.
>>> label("Y53G")
"f"
>>> label("G47Q")
"f"
>>> label("N43D")
"t"
>>> label("G40W")
"f"

In: Hello, I need to know if Q4I has measured abundance fitness not below -0.5. Thanks!
Out: t

In: Hello, I need to know if P50S has measured abundance fitness not below -0.5. Thanks!
Out: f

In: Hello, I need to know if N52P has measured abundance fitness not below -0.5. Thanks!
Out: f

In: Hello, I need to know if Y9I has measured abundance fitness not below -0.5. Thanks!
Out: t

In: Hello, I need to know if Y9N has measured abundance fitness not below -0.5. Thanks!
Out: t

In: Hello, I need to know if T57A has measured abundance fitness not below -0.5. Thanks!
Out: t

In: Hello, I need to know if V29H has measured abundance fitness not below -0.5. Thanks!
Out: f

In: Hello, I need to know if P50M has measured abundance fitness not below -0.5. Thanks!
Out: f

In: Hello, I need to know if K23R has measured abundance fitness not below -0.5. Thanks!
Out: t
